Target: TrkB (Homo sapiens, UniProt Q16620)
Sequence (Q16620 32-822): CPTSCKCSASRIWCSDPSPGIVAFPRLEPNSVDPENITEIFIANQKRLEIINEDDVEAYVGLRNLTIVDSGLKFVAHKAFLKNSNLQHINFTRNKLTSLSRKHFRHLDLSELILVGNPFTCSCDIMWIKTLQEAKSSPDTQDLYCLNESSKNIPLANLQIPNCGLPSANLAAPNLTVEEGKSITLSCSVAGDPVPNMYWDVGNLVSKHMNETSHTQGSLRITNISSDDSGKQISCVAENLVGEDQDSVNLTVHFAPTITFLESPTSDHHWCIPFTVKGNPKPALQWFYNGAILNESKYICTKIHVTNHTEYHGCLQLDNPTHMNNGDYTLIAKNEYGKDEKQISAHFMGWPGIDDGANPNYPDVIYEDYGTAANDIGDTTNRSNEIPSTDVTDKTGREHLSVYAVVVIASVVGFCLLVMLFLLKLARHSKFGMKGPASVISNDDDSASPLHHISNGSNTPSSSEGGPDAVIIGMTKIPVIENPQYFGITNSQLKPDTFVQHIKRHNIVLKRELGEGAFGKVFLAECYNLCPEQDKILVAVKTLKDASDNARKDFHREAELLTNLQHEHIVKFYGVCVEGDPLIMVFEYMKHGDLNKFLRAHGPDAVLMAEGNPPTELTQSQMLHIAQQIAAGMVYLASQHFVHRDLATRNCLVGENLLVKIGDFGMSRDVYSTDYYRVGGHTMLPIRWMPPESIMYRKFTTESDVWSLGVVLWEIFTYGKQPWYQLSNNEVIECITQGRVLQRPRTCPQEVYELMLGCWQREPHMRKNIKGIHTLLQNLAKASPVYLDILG
Test: Enzyme Fragment Complementation cell-based assay, TrkB
Details: U2OS-cells over-expressing TrkB; ligand 10 ng/mL; 3 hours incubation
pEC50: −log10 of the molar value.
Classification field: enter rule met for pEC50 values not below 6, rule not met for values below it.

{"compound smiles": "Cc1ccc(-n2c(=O)[nH]c(=O)n(-c3ccc(Oc4ccccc4)cc3C)c2=O)cc1", "assigned class": "rule met"}
{"compound smiles": "CCOc1cc(-n2c(=O)[nH]c(=O)n(C)c2=O)ccc1Oc1ccccc1", "assigned class": "rule not met"}
{"compound smiles": "Cn1c(=O)[nH]c(=O)n(-c2ccc(Oc3ccccc3)c(OCc3ccccc3)c2)c1=O", "assigned class": "rule not met"}
{"compound smiles": "Cc1cc(-n2c(=O)[nH]c(=O)n(-c3ccccc3)c2=O)ccc1Sc1ccccc1", "assigned class": "rule not met"}
{"compound smiles": "Cc1cc(-n2c(=O)[nH]c(=O)n(-c3ccc4c(c3)OCO4)c2=O)ccc1Oc1ccccc1", "assigned class": "rule met"}
{"compound smiles": "COc1cccc(-n2c(=O)[nH]c(=O)n(-c3ccc(Oc4ccccc4)c(OC)c3)c2=O)c1", "assigned class": "rule met"}
{"compound smiles": "Cc1cc(-n2c(=O)[nH]c(=O)n(-c3cccc(Cl)c3)c2=O)ccc1Oc1ccccc1", "assigned class": "rule met"}
{"compound smiles": "COc1cc(Oc2ccccc2)c(C)cc1-n1c(=O)[nH]c(=O)n(-c2ccccc2)c1=O", "assigned class": "rule met"}
{"compound smiles": "COCCOc1cc(-n2c(=O)[nH]c(=O)n(-c3ccc(OC)cc3)c2=O)ccc1Oc1ccccc1", "assigned class": "rule met"}

###

Target: TrkB (Homo sapiens)
Assay: Enzyme Fragment Complementation cell-based assay, TrkB
Details: U2OS-cells over-expressing TrkB; ligand 10 ng/mL; 3 hours incubation
observed property: EC50 (µM)

{"compound": "COCCOc1cc(-n2c(=O)[nH]c(=O)n(C)c2=O)ccc1Oc1ccccc1", "observed": 0.99}
{"compound": "O=c1[nH]c(=O)n(-c2ccc(Oc3ccccc3)c(OC3CCOC3)c2)c(=O)n1-c1ccccc1 (stereo not shown)", "observed": 0.75}
{"compound": "CC(C)Oc1cc(-n2c(=O)[nH]c(=O)n(C)c2=O)ccc1Oc1ccccc1", "observed": 1.5}
{"compound": "O=c1[nH]c(=O)n(-c2ccc(Oc3ccccc3)c(OC3CCCC3)c2)c(=O)n1-c1ccccc1", "observed": 0.92}
